The measured values listed here are drawn from patent US7271165B2.

Tested on: H. flu
Assay type: cell-based, H. influenza
Test conditions: H. flu
Observed property: MIC (μg/mL) H. flu (µg/mL)
Just the number please, in µg/mL, no unit attached.

Q. Hello, I am looking for reported MIC (μg/mL) H. flu with H. flu for COC1C=COC2(C)Oc3c(C)c(O)c4c(=O)c(c5oc6cc(N7CCC(NC(=O)SC)CC7)cc(O)c6nc-5c4c3C2=O)NC(=O)C(C)=CC=CC(C)C(O)C(C)C(O)C(C)C(OC(C)=O)C1C (centres unmarked) . Could you help?
A. 0.5

Q. Lookup: MIC (μg/mL) H. flu / H. flu / COC1C=COC2(C)Oc3c(C)c(O)c4c(=O)c(c5oc6cc(N7CCN8CCCC8C7)cc(O)c6nc-5c4c3C2=O)NC(=O)C(C)=CC=CC(C)C(O)C(C)C(O)C(C)C(O)C1C (centres unmarked) [Compound 83]
A. 0.25

Q. Give MIC (μg/mL) H. flu (H. flu) of the following compound: COC1C=COC2(C)Oc3c(C)c(O)c4c(=O)c(c5sc6cc(N7CCN(C)CC7)ccc6nc-5c4c3C2=O)NC(=O)C(C)=CC=CC(C)C(O)C(C)C(O)C(C)C(O)C1C (centres unmarked)
A. 0.12

Q. Request body: readout MIC (μg/mL) H. flu, system H. flu, query CO[C@H]1/C=C/O[C@@]2(C)Oc3c(C)c(O)c4c(=O)c(c5oc6cc(N7CCC(NS(=O)(=O)C(F)(F)F)CC7)cc(O)c6nc-5c4c3C2=O)NC(=O)/C(C)=C\C=C\[C@H](C)[C@H](O)[C@@H](C)[C@@H](O)[C@@H](C)[C@H](OC(C)=O)[C@@H]1C . Return the value.
A. 2

Q. Lab request: please report MIC (μg/mL) H. flu under test system H. flu for COC1C=COC2(C)Oc3c(C)c(O)c4c(=O)c(c5oc6cc(N7CCC(F)CC7)ccc6nc-5c4c3C2=O)NC(=O)C(C)=CC=CC(C)C(O)C(C)C(O)C(C)C(O)C1C (centres unmarked)
A. 0.12
